- Tested on: HuH-7 hepatocellular carcinoma cells
- test.protocol: Methylene Blue Staining Proliferation Assay (MBS)
- cond: Homo sapiens, Huh-7, 72 h, read-out: HUH7 proliferation (nM) MBS
# if measured IC50 < 100 nM: condition met  # else: condition not met

Request: Could you please tell me whether IC50 recorded for CC(C)n1cnc2cnc(NC(=O)N3CCCc4cc(CN5CCN(C)CC5=O)c(C=O)nc43)cc21 [Example 216] is less than 100 nM?
Response: condition not met

Request: Lab note: confirm whether the reported IC50 for this compound is below 100 nM, equality not counting. compound: COCCNc1cc(NC(=O)N2CCCc3cc(CN(CCN(C)C)C(C)=O)c(C=O)nc32)ncc1C#N [Example 143]
Response: condition not met

Request: I'd appreciate it if you could check whether COCCNc1cc(NC(=O)N2CCCc3cc(CN4CCN(C)CC4=O)c(C=O)nc32)ncc1C#N [Example 83] has IC50 smaller than 100 nM.
Response: condition met

Request: IC50 strictly < 100 nM for this compound? COC[C@@H](C)Oc1cc(NC(=O)N2CCCc3cc(CN4C(=O)OC[C@@H]4C)c(C=O)nc32)ncc1C#N [Example 115]
Response: condition met

Request: Does the reported IC50 of the following compound sit strictly below 100 nM? CN1CCC(COc2cc(NC(=O)N3CCCc4cc(CO)c(C=O)nc43)ncc2C#N)CC1 [Example 78]
Response: condition not met

Request: Lab log: compare recorded IC50 with 100 nM; is it strictly lower for O=Cc1ccc2c(n1)N(C(=O)Nc1ccc(Cl)cn1)CCC2 [Example 4] ?
Response: condition not met

Request: is_below(IC50, 100 nM) for CC(C)Oc1cc(NC(=O)N2CCCc3cc(CN(C)C(=O)CO)c(C=O)nc32)ncc1C#N [Example 141] ?
Response: condition met
